Target: T1, EsCas13d, nuclease-dead (Eubacterium siraeum, UniProt B0MS50, R295A;H300A;R849A;H854A)
T1 sequence: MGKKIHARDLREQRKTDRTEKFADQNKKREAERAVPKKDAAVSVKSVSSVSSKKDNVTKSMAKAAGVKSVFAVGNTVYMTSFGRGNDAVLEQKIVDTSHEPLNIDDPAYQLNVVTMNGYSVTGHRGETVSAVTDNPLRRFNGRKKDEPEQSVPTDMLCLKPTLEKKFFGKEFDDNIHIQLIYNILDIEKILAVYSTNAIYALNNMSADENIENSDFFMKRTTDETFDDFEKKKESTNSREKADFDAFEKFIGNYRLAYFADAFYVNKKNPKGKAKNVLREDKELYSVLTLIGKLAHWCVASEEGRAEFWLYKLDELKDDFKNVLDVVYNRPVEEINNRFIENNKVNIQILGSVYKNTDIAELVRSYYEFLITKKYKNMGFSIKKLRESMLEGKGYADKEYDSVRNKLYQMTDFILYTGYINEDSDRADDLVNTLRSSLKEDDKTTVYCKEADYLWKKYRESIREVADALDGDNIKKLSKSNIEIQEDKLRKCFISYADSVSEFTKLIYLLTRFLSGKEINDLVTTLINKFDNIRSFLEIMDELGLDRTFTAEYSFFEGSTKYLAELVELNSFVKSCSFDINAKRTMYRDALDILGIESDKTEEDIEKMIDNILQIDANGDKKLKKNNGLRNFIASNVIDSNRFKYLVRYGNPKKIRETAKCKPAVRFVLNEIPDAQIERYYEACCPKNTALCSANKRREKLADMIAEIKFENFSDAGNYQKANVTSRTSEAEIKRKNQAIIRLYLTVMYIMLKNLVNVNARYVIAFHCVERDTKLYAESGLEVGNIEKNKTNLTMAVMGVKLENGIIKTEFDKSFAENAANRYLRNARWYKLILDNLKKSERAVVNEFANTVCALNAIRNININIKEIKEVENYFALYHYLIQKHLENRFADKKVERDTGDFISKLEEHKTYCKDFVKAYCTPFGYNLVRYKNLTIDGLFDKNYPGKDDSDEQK
Assay: crRNA (strand 1, pre-loaded); Mg2+; 40 mM Tris-HCl pH 7.5, 150 mM NaCl, 6 mM MgCl2, 1 mM DTT, 0.1% Tween-20, 0.2 mg/ml BSA; 25 C; 10 min per concentration, then washed
Details: tags: His6-TwinStrep-SUMO cleaved; N-terminal SNAP kept (SNAP-Surface 488); label: 3' end held by stalled T7 RNA polymerase
Let's look at some binders and their measured Kd.
assay-metric: Kd

[[record]]
binder = "target 1 MT 5'PFS CCA 3'PFS ACG (mixed) RNA 1: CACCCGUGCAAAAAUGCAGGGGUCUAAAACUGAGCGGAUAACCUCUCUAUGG RNA 2: GGGAAUGGAUCCACAUCUACGAAUUCCCACCAUAGAGAGGUUAUCCGCUCAACGAGAUCGGAAGAGCACACGU"
experimental_result = "3.95 nM"

[[record]]
binder = "target 1 insU 3' of 20,insG 3' of 4 (mixed) RNA 1: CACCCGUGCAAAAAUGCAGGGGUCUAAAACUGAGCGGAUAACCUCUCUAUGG RNA 2: GGGAAUGGAUCCACAUCUACGAAUUCGUACCAUUAGAGAGGUUAUCCGCGUCACCGAGAUCGGAAGAGCACACGU"
experimental_result = "10.4 nM"

[[record]]
binder = "target 3 U2C,U22A (mixed) RNA 1: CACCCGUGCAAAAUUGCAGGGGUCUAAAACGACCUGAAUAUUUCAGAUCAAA RNA 2: GGGAAUGGAUCCACAUCUACGAAUUCGUUAUUGAUCUGAAAUAUUCAGGCCUGCAGAUCGGAAGAGCACACGU"
experimental_result = "77.5 nM"

[[record]]
binder = "target 3 C1G,A5G (mixed) RNA 1: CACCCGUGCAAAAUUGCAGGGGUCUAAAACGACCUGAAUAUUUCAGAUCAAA RNA 2: GGGAAUGGAUCCACAUCUACGAAUUCGUUUUUGAUCUGAAAUAUUCGGGUGUGCAGAUCGGAAGAGCACACGU"
experimental_result = "55 nM"

[[record]]
binder = "target 1 insA 3' of 22,insU 3' of 18 (mixed) RNA 1: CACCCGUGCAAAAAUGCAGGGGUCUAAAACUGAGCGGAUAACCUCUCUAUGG RNA 2: GGGAAUGGAUCCACAUCUACGAAUUCGUACACAUAUGAGAGGUUAUCCGCUCACCGAGAUCGGAAGAGCACACGU"
experimental_result = "47 nM"

[[record]]
binder = "target 1 insA 3' of 22,insA 3' of 22 (mixed) RNA 1: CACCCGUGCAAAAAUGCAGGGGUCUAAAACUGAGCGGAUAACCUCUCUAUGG RNA 2: GGGAAUGGAUCCACAUCUACGAAUUCGUACAACAUAGAGAGGUUAUCCGCUCACCGAGAUCGGAAGAGCACACGU"
experimental_result = "9.9 nM"

[[record]]
binder = "target 1 C21A,C22A (mixed) RNA 1: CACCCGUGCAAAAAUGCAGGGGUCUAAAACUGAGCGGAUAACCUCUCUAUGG RNA 2: GGGAAUGGAUCCACAUCUACGAAUUCGUAAAAUAGAGAGGUUAUCCGCUCACCGAGAUCGGAAGAGCACACGU"
experimental_result = "36 nM"

[[record]]
binder = "target 1 U8G,U19G (mixed) RNA 1: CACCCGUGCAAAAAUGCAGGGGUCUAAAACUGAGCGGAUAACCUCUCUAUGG RNA 2: GGGAAUGGAUCCACAUCUACGAAUUCGUACCAGAGAGAGGUUAGCCGCUCACCGAGAUCGGAAGAGCACACGU"
experimental_result = "79 nM"

[[record]]
binder = "target 1 G12C,G13C (mixed) RNA 1: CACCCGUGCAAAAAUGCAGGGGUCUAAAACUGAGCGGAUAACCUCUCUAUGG RNA 2: GGGAAUGGAUCCACAUCUACGAAUUCGUACCAUAGAGACCUUAUCCGCUCACCGAGAUCGGAAGAGCACACGU"
experimental_result = "30 nM"

[[record]]
binder = "target 3 insA 3' of 19,insU 3' of 1 (mixed) RNA 1: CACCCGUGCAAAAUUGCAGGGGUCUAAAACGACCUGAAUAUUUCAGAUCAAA RNA 2: GGGAAUGGAUCCACAUCUACGAAUUCGUUUUUGAAUCUGAAAUAUUCAGGUCUUGCAGAUCGGAAGAGCACACGU"
experimental_result = "68 nM"

[[record]]
binder = "target 2 MT 5'PFS UUA 3'PFS UUA (mixed) RNA 1: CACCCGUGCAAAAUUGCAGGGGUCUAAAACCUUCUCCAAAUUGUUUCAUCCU RNA 2: GGGAAUGGAUCCACAUCUACGAAUUCUUAAGGAUGAAACAAUUUGGAGAAGUUAAGAUCGGAAGAGCACACGU"
experimental_result = "49 nM"

[[record]]
binder = "target 1 MT 5'PFS GCG 3'PFS UAG (mixed) RNA 1: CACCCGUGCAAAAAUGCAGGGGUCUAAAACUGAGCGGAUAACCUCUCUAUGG RNA 2: GGGAAUGGAUCCACAUCUACGAAUUCGCGCCAUAGAGAGGUUAUCCGCUCAUAGAGAUCGGAAGAGCACACGU"
experimental_result = "17.5 nM"

[[record]]
binder = "target 1 insU 3' of 14,insA 3' of 6 (mixed) RNA 1: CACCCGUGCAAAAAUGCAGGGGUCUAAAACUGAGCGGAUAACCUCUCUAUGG RNA 2: GGGAAUGGAUCCACAUCUACGAAUUCGUACCAUAGAGAUGGUUAUCCAGCUCACCGAGAUCGGAAGAGCACACGU"
experimental_result = "80 nM"

[[record]]
binder = "target 1 MT 5'PFS GAC 3'PFS UCG (mixed) RNA 1: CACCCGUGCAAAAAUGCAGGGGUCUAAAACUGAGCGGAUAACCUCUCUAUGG RNA 2: GGGAAUGGAUCCACAUCUACGAAUUCGACCCAUAGAGAGGUUAUCCGCUCAUCGAGAUCGGAAGAGCACACGU"
experimental_result = "13.2 nM"

[[record]]
binder = "target 1 insC 3' of 11,insU 3' of 6 (mixed) RNA 1: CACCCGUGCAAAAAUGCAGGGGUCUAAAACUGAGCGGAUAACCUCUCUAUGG RNA 2: GGGAAUGGAUCCACAUCUACGAAUUCGUACCAUAGAGAGGUCUAUCCUGCUCACCGAGAUCGGAAGAGCACACGU"
experimental_result = "69 nM"

